measurement-target: UniProt:P63239
Sequence (P63239 111-753): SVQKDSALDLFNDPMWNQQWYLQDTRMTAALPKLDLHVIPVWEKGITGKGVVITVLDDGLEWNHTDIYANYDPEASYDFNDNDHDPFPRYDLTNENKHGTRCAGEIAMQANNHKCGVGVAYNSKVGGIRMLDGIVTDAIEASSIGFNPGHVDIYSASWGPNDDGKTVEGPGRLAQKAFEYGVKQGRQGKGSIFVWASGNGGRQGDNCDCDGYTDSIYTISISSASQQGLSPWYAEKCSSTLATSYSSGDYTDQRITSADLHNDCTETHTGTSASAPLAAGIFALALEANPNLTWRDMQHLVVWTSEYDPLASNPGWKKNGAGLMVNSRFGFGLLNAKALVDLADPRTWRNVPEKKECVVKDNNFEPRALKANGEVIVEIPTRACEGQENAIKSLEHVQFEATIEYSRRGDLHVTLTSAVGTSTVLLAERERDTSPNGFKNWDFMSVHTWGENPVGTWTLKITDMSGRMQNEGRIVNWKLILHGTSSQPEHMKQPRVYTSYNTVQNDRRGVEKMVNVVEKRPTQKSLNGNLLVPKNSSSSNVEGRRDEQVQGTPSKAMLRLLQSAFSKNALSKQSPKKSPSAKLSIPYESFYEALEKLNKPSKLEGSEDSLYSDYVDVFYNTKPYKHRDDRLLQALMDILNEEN
quantity: Ki (µM)

1. N=C(N)NCCC[C@H](NC(=O)[C@H](CCCNC(=N)N)NC(=O)[C@H](CCCNC(=N)N)NC(=O)[C@H](CCCNC(=N)N)NC(=O)[C@H](CCCNC(=N)N)NC(=O)[C@H](CCCNC(=N)N)NC(=O)[C@H](CCCNC(=N)N)NC(=O)[C@H](CCCNC(=N)N)NC(=O)[C@@H](N)CCCNC(=N)N)C(=O)O; 12
2. N=C(N)NCCC[C@@H](NC(=O)[C@H](N)CCCN=C(N)N)C(=O)N[C@H](CCCNC(=N)N)C(=O)N[C@H](CCCNC(=N)N)C(=O)N[C@H](CCCNC(=N)N)C(=O)N[C@H](CCCN=C(N)N)C(=O)O; 13
3. N=C(N)NCCC[C@H](NC(=O)[C@H](CCCNC(=N)N)NC(=O)[C@H](CCCNC(=N)N)NC(=O)[C@H](CCCNC(=N)N)NC(=O)[C@H](CCCNC(=N)N)NC(=O)[C@H](CCCNC(=N)N)NC(=O)[C@@H](N)CCCNC(=N)N)C(=O)O; 5.2

// provenance: patent US7569547B2
